- test_details: solvent given as SMILES
- condition_details: in c1cc(-n2c3ccccc3c3ccccc32)cc(-n2c3ccccc3c3ccccc32)c1
Measured fluorescence lifetime values are reported for all entries that follow.
property_measured: fluorescence lifetime (ns)

smiles_string: O=S(=O)(c1ccc(N2c3ccccc3Oc3ccccc32)cc1)c1ccc(N2c3ccccc3Oc3ccccc32)cc1
property_measured: fluorescence lifetime
test_value: 14
--
smiles_string: COc1ccc(-c2ccc3c(c2)c2cc(-c4ccc(OC)cc4)ccc2n3-c2ccc(C(=O)c3ccc4sc5ccccc5c4c3)nc2)cc1
property_measured: fluorescence lifetime
test_value: 8.4
--
smiles_string: O=C(c1ccccc1)c1cc2ccc1CCc1ccc(cc1-c1ccc(N(c3ccccc3)c3ccccc3)cc1)CC2
property_measured: fluorescence lifetime
test_value: 17
